molecular target: kinases (Homo sapiens, UniProt P36888, K663Q); construct: purchased Eurofins/DiscoveRx; host or cells: E. coli BL21-derived host (T7 phage display) for most kinases; HEK-293 for the rest; test: KINOMEscan kinase binding assay (Eurofins/DiscoveRx), % Ctrl; settings: 1 μM; FLT3(K663Q)
Rule: measured % Ctrl, FLT3(K663Q) below 70 % Ctrl gets MET; anything equal to or greater than 70 % Ctrl gets NOT MET.

IN: Confirm or reject: % Ctrl, FLT3(K663Q) of `Cc1cc2c([nH]1)/C=C1\C(=O)Nc3ccc(cc31)-c1c(C)n[nH]c1CNCCN(C)C2=O` lies strictly below 70 % Ctrl
OUT: MET

IN: Confirm or reject: % Ctrl, FLT3(K663Q) of `Cc1cc2c([nH]1)/C=C1\C(=O)Nc3cc(Cl)c(cc31)OCCO[C@@H](C(=O)NC1CNC1)CN(C)C2=O` lies strictly below 70 % Ctrl
OUT: NOT MET

IN: Confirm or reject: % Ctrl, FLT3(K663Q) of `Cc1cc2c([nH]1)/C=C1\C(=O)Nc3cnc(nc31)N(C)CCCOCCN(C)C2=O` lies strictly below 70 % Ctrl
OUT: NOT MET

IN: Confirm or reject: % Ctrl, FLT3(K663Q) of `Cc1cc2c([nH]1)/C=C1\C(=O)Nc3cc(Cl)c(cc31)OCCO[C@@H](C(=O)NC1CCNCC1)CN(C)C2=O` lies strictly below 70 % Ctrl
OUT: NOT MET

IN: Confirm or reject: % Ctrl, FLT3(K663Q) of `Cc1cc2c([nH]1)/C=C1\C(=O)Nc3ccc(cc31)-c1cnn(C)c1CN(C)CCN(C)C2=O` lies strictly below 70 % Ctrl
OUT: MET

IN: Confirm or reject: % Ctrl, FLT3(K663Q) of `Cc1cc2c([nH]1)/C=C1\C(=O)Nc3ccc(cc31)OCCOCCNC2=O` lies strictly below 70 % Ctrl
OUT: NOT MET

IN: Confirm or reject: % Ctrl, FLT3(K663Q) of `Cc1cc2c([nH]1)/C=C1\C(=O)Nc3ccc(cc31)O[C@@H](C)COCCN(C)C2=O` lies strictly below 70 % Ctrl
OUT: MET

IN: Confirm or reject: % Ctrl, FLT3(K663Q) of `Cc1cc2c([nH]1)/C=C1\C(=O)Nc3cc(Cl)c(cc31)OCCOCCN(C)C2=O` lies strictly below 70 % Ctrl
OUT: MET

====

Please go through the items and note down their % Ctrl, ABL1-phosphorylated.
molecular target: kinases (Homo sapiens, UniProt P00519); construct: purchased Eurofins/DiscoveRx; host or cells: E. coli BL21-derived host (T7 phage display) for most kinases; HEK-293 for the rest; assay: KINOMEscan kinase binding assay (Eurofins/DiscoveRx), % Ctrl; conditions: 1 μM; target ABL1-phosphorylated
Sequence (P00519 whole entry): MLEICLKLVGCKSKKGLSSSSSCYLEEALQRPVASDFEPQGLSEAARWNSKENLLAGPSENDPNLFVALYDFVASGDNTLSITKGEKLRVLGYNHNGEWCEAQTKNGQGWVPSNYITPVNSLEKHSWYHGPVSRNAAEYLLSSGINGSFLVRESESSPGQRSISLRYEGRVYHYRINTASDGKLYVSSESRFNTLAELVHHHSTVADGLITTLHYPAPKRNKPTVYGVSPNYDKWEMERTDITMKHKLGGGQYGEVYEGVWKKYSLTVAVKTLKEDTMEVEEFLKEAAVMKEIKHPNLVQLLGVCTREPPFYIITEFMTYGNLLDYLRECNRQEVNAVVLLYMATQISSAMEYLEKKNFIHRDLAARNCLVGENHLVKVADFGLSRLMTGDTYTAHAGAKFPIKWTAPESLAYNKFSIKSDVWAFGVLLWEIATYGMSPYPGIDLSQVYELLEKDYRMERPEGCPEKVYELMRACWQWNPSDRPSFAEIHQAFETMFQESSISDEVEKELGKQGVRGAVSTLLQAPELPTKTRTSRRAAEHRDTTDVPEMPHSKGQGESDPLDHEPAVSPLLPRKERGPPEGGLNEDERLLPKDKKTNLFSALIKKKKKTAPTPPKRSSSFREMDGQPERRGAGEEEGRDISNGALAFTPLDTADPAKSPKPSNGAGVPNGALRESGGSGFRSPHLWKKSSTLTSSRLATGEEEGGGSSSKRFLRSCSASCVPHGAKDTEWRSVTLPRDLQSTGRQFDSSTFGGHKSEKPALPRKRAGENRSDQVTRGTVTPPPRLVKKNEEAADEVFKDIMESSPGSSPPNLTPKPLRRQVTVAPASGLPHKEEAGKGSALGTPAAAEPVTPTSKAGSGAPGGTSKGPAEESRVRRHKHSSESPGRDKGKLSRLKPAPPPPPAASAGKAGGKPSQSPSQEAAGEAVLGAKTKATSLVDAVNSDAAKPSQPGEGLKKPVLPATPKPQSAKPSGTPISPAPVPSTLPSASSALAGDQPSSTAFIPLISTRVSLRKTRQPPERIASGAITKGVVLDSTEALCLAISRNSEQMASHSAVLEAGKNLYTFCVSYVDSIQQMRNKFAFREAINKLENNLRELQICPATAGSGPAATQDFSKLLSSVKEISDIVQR
The answer is to be given in % Ctrl; state only the numeric part.

IN: Give the measured % Ctrl, ABL1-phosphorylated for `Cc1cc2c([nH]1)/C=C1\C(=O)Nc3ccc(cc31)-c1cnn(C)c1OCCCN(C)C2=O`
OUT: 3.6

IN: Give the measured % Ctrl, ABL1-phosphorylated for `Cc1cc2c([nH]1)/C=C1\C(=O)Nc3cc(Cl)c(cc31)SCCOCCN(C)C2=O`
OUT: 0

IN: Give the measured % Ctrl, ABL1-phosphorylated for `Cc1cc2c([nH]1)/C=C1\C(=O)Nc3cnc(cc31)-c1cnn(C)c1CN(C)CCN(C)C2=O`
OUT: 1.4

IN: Give the measured % Ctrl, ABL1-phosphorylated for `CN1CCOc2cc3c(cc2Cl)NC(=O)/C3=C\c2[nH]ccc2C(=O)N(C)CC1`
OUT: 0.1

IN: Give the measured % Ctrl, ABL1-phosphorylated for `Cc1cc2c([nH]1)/C=C1\C(=O)Nc3ccc(cc31)-c1c(noc1C(C)C)COCCN(C)C2=O`
OUT: 97

All figures here come from patent US20230257396A1.
